Data origin, for the record: ChEMBL document CHEMBL1629465

Recorded zone of inhibition at 2500 µg/mL values for a group of compounds are listed next.
Test system: Pseudomonas aeruginosa
Test: Antimicrobial activity against Pseudomonas aeruginosa RCMB 102002 at 2.5 mg/ml by agar diffusion technique
Assay type: functional
Conditions: read-out: DIZ
Readout: zone of inhibition at 2500 µg/mL (mm)

CN(C/C=C/C#CC(C)(C)C)Cc1cccc2ccccc12 [TERBINAFINE]    10
Nn1c(SCCSc2nnc(-c3cccnc3)n2N)nnc1-c1cccnc1    0
S=c1[nH]nc(-c2cccnc2)n1/N=C\c1ccccc1OCCOCCOCCOc1ccccc1/C=N\n1c(-c2cccnc2)n[nH]c1=S    0
Nn1c(-c2cccnc2)n[nH]c1=S    0
Nn1c(SCCCSc2nnc(-c3cccnc3)n2N)nnc1-c1cccnc1    0
O=C(N[C@H](CO)[C@H](O)c1ccc([N+](=O)[O-])cc1)C(Cl)Cl [CHLORAMPHENICOL]    10
OC1COc2ccccc2/C=N\n2c(nnc2-c2cccnc2)SCCCSc2nnc(-c3cccnc3)n2/N=C\c2ccccc2OC1    0
S=c1[nH]nc(-c2cccnc2)n1/N=C\c1ccccc1OCCOCCOc1ccccc1/C=N\n1c(-c2cccnc2)n[nH]c1=S    0
Nn1c(SCCCCSc2nnc(-c3cccnc3)n2N)nnc1-c1cccnc1    0
OC(COc1ccccc1/C=N\n1c(-c2cccnc2)n[nH]c1=S)COc1ccccc1/C=N\n1c(-c2cccnc2)n[nH]c1=S    0
Oc1ccccc1/C=N\n1c(SCCSc2nnc(-c3cccnc3)n2/N=C\c2ccccc2O)nnc1-c1cccnc1    0
S=c1[nH]nc(-c2cccnc2)n1/N=C\c1ccccc1OCCCOc1ccccc1/C=N\n1c(-c2cccnc2)n[nH]c1=S    0
S=c1[nH]nc(-c2cccnc2)n1/N=C\c1ccccc1OCCCCOc1ccccc1/C=N\n1c(-c2cccnc2)n[nH]c1=S    1
OC1COc2ccccc2CNn2c(nnc2-c2cccnc2)SCCCSc2nnc(-c3cccnc3)n2NCc2ccccc2OC1    0
C1=N\n2c(nnc2-c2cccnc2)SCCCCSc2nnc(-c3cccnc3)n2/N=C\c2ccccc2OCCCCOc2ccccc2/1    0
C1=N\n2c(nnc2-c2cccnc2)SCCCCSc2nnc(-c3cccnc3)n2/N=C\c2ccccc2OCCOCCOCCOc2ccccc2/1    1
OC1COc2ccccc2/C=N\n2c(nnc2-c2cccnc2)SCCCCSc2nnc(-c3cccnc3)n2/N=C\c2ccccc2OC1    0

====

System: Candida albicans
Test: Antimicrobial activity against Candida albicans RCMB 005003 at 1 mg/ml by agar diffusion technique
Type: functional
Details: read-out: DIZ
Readout: zone of inhibition at 1000 µg/mL

CN(C/C=C/C#CC(C)(C)C)Cc1cccc2ccccc12    6 mm
S=c1[nH]nc(-c2cccnc2)n1/N=C\c1ccccc1OCCOCCOc1ccccc1/C=N\n1c(-c2cccnc2)n[nH]c1=S    0 mm
S=c1[nH]nc(-c2cccnc2)n1/N=C\c1ccccc1OCCCOc1ccccc1/C=N\n1c(-c2cccnc2)n[nH]c1=S    0 mm
O=C(N[C@H](CO)[C@H](O)c1ccc([N+](=O)[O-])cc1)C(Cl)Cl    6 mm

====

Listing of entries alongside the reported zone of inhibition at 5000 µg/mL.
Tested on: Escherichia coli
Assay: Antimicrobial activity against Escherichia coli RCMB 103001 at 5 mg/ml by agar diffusion technique
Type: functional
Conditions: read-out: DIZ
Readout: zone of inhibition at 5000 µg/mL (mm)

S=c1[nH]nc(-c2cccnc2)n1/N=C\c1ccccc1OCCOCCOc1ccccc1/C=N\n1c(-c2cccnc2)n[nH]c1=S    0
O=C(N[C@H](CO)[C@H](O)c1ccc([N+](=O)[O-])cc1)C(Cl)Cl [CHLORAMPHENICOL]    6
CN(C/C=C/C#CC(C)(C)C)Cc1cccc2ccccc12 [TERBINAFINE]    6
Nn1c(-c2cccnc2)n[nH]c1=S    1
OC1COc2ccccc2/C=N\n2c(nnc2-c2cccnc2)SCCCSc2nnc(-c3cccnc3)n2/N=C\c2ccccc2OC1    0
S=c1[nH]nc(-c2cccnc2)n1/N=C\c1ccccc1OCCCOc1ccccc1/C=N\n1c(-c2cccnc2)n[nH]c1=S    0
S=c1[nH]nc(-c2cccnc2)n1/N=C\c1ccccc1OCCCCOc1ccccc1/C=N\n1c(-c2cccnc2)n[nH]c1=S    0
Nn1c(SCCCCSc2nnc(-c3cccnc3)n2N)nnc1-c1cccnc1    0
OC1COc2ccccc2CNn2c(nnc2-c2cccnc2)SCCCSc2nnc(-c3cccnc3)n2NCc2ccccc2OC1    0
Nn1c(SCCCSc2nnc(-c3cccnc3)n2N)nnc1-c1cccnc1    0
OC1COc2ccccc2/C=N\n2c(nnc2-c2cccnc2)SCCCCSc2nnc(-c3cccnc3)n2/N=C\c2ccccc2OC1    0
Nn1c(SCCSc2nnc(-c3cccnc3)n2N)nnc1-c1cccnc1    1
C1=N\n2c(nnc2-c2cccnc2)SCCCCSc2nnc(-c3cccnc3)n2/N=C\c2ccccc2OCCOCCOCCOc2ccccc2/1    1
S=c1[nH]nc(-c2cccnc2)n1/N=C\c1ccccc1OCCOCCOCCOc1ccccc1/C=N\n1c(-c2cccnc2)n[nH]c1=S    0
Oc1ccccc1/C=N\n1c(SCCSc2nnc(-c3cccnc3)n2/N=C\c2ccccc2O)nnc1-c1cccnc1    0

====

Test system: Escherichia coli
Assay: Antimicrobial activity against Escherichia coli RCMB 103001 at 1 mg/ml by agar diffusion technique
Type: functional
Settings: read-out: DIZ
Below is a list of entries, each paired with its recorded zone of inhibition at 1000 µg/mL value.
Readout: zone of inhibition at 1000 µg/mL (mm)

CN(C/C=C/C#CC(C)(C)C)Cc1cccc2ccccc12    6
C1=N\n2c(nnc2-c2cccnc2)SCCCCSc2nnc(-c3cccnc3)n2/N=C\c2ccccc2OCCCCOc2ccccc2/1    1
OC1COc2ccccc2/C=N\n2c(nnc2-c2cccnc2)SCCCSc2nnc(-c3cccnc3)n2/N=C\c2ccccc2OC1    0
S=c1[nH]nc(-c2cccnc2)n1/N=C\c1ccccc1OCCCOc1ccccc1/C=N\n1c(-c2cccnc2)n[nH]c1=S    0

====

Test system: Penicillium italicum
Assay: Antimicrobial activity against Penicillium italicum RCMB 001018 at 2.5 mg/ml by agar diffusion technique
Type: functional
Settings: read-out: DIZ
Readout: zone of inhibition at 2500 µg/mL (mm)

OC1COc2ccccc2CNn2c(nnc2-c2cccnc2)SCCCSc2nnc(-c3cccnc3)n2NCc2ccccc2OC1    0
S=c1[nH]nc(-c2cccnc2)n1/N=C\c1ccccc1OCCCCOc1ccccc1/C=N\n1c(-c2cccnc2)n[nH]c1=S    1
S=c1[nH]nc(-c2cccnc2)n1/N=C\c1ccccc1OCCOCCOc1ccccc1/C=N\n1c(-c2cccnc2)n[nH]c1=S    1

====

Tested on: Penicillium italicum
Assay: Antimicrobial activity against Penicillium italicum RCMB 001018 at 2.5 mg/ml by agar diffusion technique
Assay type: functional
Settings: read-out: DIZ
As shown below, each of these compounds has a reported zone of inhibition at 2500 µg/mL value.
Readout: zone of inhibition at 2500 µg/mL (mm)

O=C(N[C@H](CO)[C@H](O)c1ccc([N+](=O)[O-])cc1)C(Cl)Cl    10
OC(COc1ccccc1/C=N\n1c(-c2cccnc2)n[nH]c1=S)COc1ccccc1/C=N\n1c(-c2cccnc2)n[nH]c1=S    6
C1=N\n2c(nnc2-c2cccnc2)SCCCCSc2nnc(-c3cccnc3)n2/N=C\c2ccccc2OCCOCCOCCOc2ccccc2/1    0
Nn1c(SCCCSc2nnc(-c3cccnc3)n2N)nnc1-c1cccnc1    0
Nn1c(-c2cccnc2)n[nH]c1=S    0
S=c1[nH]nc(-c2cccnc2)n1/N=C\c1ccccc1OCCOCCOCCOc1ccccc1/C=N\n1c(-c2cccnc2)n[nH]c1=S    1
Nn1c(SCCCCSc2nnc(-c3cccnc3)n2N)nnc1-c1cccnc1    0
OC1COc2ccccc2/C=N\n2c(nnc2-c2cccnc2)SCCCCSc2nnc(-c3cccnc3)n2/N=C\c2ccccc2OC1    0
S=c1[nH]nc(-c2cccnc2)n1/N=C\c1ccccc1OCCCOc1ccccc1/C=N\n1c(-c2cccnc2)n[nH]c1=S    0

====

System: Staphylococcus aureus
Assay: Antimicrobial activity against Staphylococcus aureus RCMB 106001 at 2.5 mg/ml by agar diffusion technique
Type: functional
Details: read-out: DIZ
Readout: zone of inhibition at 2500 µg/mL (mm)

S=c1[nH]nc(-c2cccnc2)n1/N=C\c1ccccc1OCCCCOc1ccccc1/C=N\n1c(-c2cccnc2)n[nH]c1=S    0
Nn1c(SCCCCSc2nnc(-c3cccnc3)n2N)nnc1-c1cccnc1    1
O=C(N[C@H](CO)[C@H](O)c1ccc([N+](=O)[O-])cc1)C(Cl)Cl [CHLORAMPHENICOL]    6
OC(COc1ccccc1/C=N\n1c(-c2cccnc2)n[nH]c1=S)COc1ccccc1/C=N\n1c(-c2cccnc2)n[nH]c1=S    0

====

System: Penicillium italicum
Assay: Antimicrobial activity against Penicillium italicum RCMB 001018 at 1 mg/ml by agar diffusion technique
Assay type: functional
Details: read-out: DIZ
Readout: zone of inhibition at 1000 µg/mL (mm)

OC(COc1ccccc1/C=N\n1c(-c2cccnc2)n[nH]c1=S)COc1ccccc1/C=N\n1c(-c2cccnc2)n[nH]c1=S    6
C1=N\n2c(nnc2-c2cccnc2)SCCCCSc2nnc(-c3cccnc3)n2/N=C\c2ccccc2OCCOCCOCCOc2ccccc2/1    0
S=c1[nH]nc(-c2cccnc2)n1/N=C\c1ccccc1OCCCOc1ccccc1/C=N\n1c(-c2cccnc2)n[nH]c1=S    0
S=c1[nH]nc(-c2cccnc2)n1/N=C\c1ccccc1OCCCCOc1ccccc1/C=N\n1c(-c2cccnc2)n[nH]c1=S    1
CN(C/C=C/C#CC(C)(C)C)Cc1cccc2ccccc12 [TERBINAFINE]    6
Oc1ccccc1/C=N\n1c(SCCSc2nnc(-c3cccnc3)n2/N=C\c2ccccc2O)nnc1-c1cccnc1    0
OC1COc2ccccc2CNn2c(nnc2-c2cccnc2)SCCCSc2nnc(-c3cccnc3)n2NCc2ccccc2OC1    0
S=c1[nH]nc(-c2cccnc2)n1/N=C\c1ccccc1OCCOCCOc1ccccc1/C=N\n1c(-c2cccnc2)n[nH]c1=S    1
O=C(N[C@H](CO)[C@H](O)c1ccc([N+](=O)[O-])cc1)C(Cl)Cl [CHLORAMPHENICOL]    6
OC1COc2ccccc2/C=N\n2c(nnc2-c2cccnc2)SCCCCSc2nnc(-c3cccnc3)n2/N=C\c2ccccc2OC1    0
S=c1[nH]nc(-c2cccnc2)n1/N=C\c1ccccc1OCCOCCOCCOc1ccccc1/C=N\n1c(-c2cccnc2)n[nH]c1=S    1
Nn1c(SCCCCSc2nnc(-c3cccnc3)n2N)nnc1-c1cccnc1    0
Nn1c(SCCSc2nnc(-c3cccnc3)n2N)nnc1-c1cccnc1    0
OC1COc2ccccc2/C=N\n2c(nnc2-c2cccnc2)SCCCSc2nnc(-c3cccnc3)n2/N=C\c2ccccc2OC1    0
Nn1c(SCCCSc2nnc(-c3cccnc3)n2N)nnc1-c1cccnc1    0
C1=N\n2c(nnc2-c2cccnc2)SCCCCSc2nnc(-c3cccnc3)n2/N=C\c2ccccc2OCCCCOc2ccccc2/1    0
Nn1c(-c2cccnc2)n[nH]c1=S    0
